- Test system: COLO 205 colon
- assay_details: NCI-60 one-dose screen, 48 h (100 = growth as untreated, 0 = no growth, -100 = all killed)
- condition_set: 10 µM unless noted
This is part of a sample that, as a whole, favours compounds with a hit. Of some 83,000 tested, about 20% had one in any assay.
recorded_endpoint: growth (%)

O=C1c2ccccc2C(=O)c2c1ccc1[nH]c(-c3cccs3)nc21 | 103
CNC(=O)c1cc(Oc2ccc(NC(=O)Nc3ccc(Cl)c(OC(F)(F)F)c3)c(F)c2)ccn1 | 6.8
COc1ccc(C2CC(c3ccc4ccccc4c3)=NN2/C=C2\SC(=S)N(NC(=O)Cc3ccccc3Nc3c(Cl)cccc3Cl)C2=O)cc1 (stereo not given) | 55.6
CSc1nc2c(c(=O)[nH]1)C1(C(=O)Nc3ccccc31)c1c(nc(SC)[nH]c1=O)N2 | 109
COc1ccc2[nH]cc(-c3noc(C(=O)c4cn(C)c5ccc(F)cc45)n3)c2c1 | 96

----------
- Tested on: A498 renal
- assay_details: NCI-60 one-dose screen, 48 h
- condition_set: 10 µM unless noted
This is part of a sample that, as a whole, favours compounds with a hit. Of some 83,000 tested, about 20% had one in any assay. Activity calls are given as the source filed them. The calls were made as follows: active = growth percent below 10; inactive = the rest.
Classes used: YES = active, NO = inactive

Cc1cc(N2CCCCCC2)nc(NC2CCCC(Nc3ccnc4cc(Cl)ccc34)C2)n1 (stereo not given) | YES
CS(=O)(=O)c1ccc(-n2nc(-c3ccc(Br)cc3)c3ccccc3c2=O)cc1 | NO
O=C(CN1C(=O)/C(=C/c2ccc(Cl)cc2)SC1=S)NCCCN1CCOCC1 | NO
COc1ccc(/C=C\c2cc(OC)c(OC)c(OC)c2)cc1OCC(=O)Nc1ccc2nc(C)sc2c1 | NO
OCc1ccc(N2CCc3cccc(F)c3C2)cc1Cl | YES
O=C1CSC(=S)N1CCc1ccc(O)cc1 | NO
O=C(Oc1cccnc1)c1ccsc1Nc1ccnc(C(F)(F)F)c1 | NO
O=C(Nc1cccc2[nH]c(C(F)(F)F)nc12)c1ccc(-n2cnnn2)cc1 | NO
CCCCCCN(CCCCCC)CCC(O)c1ccc2ccccc2c1 (stereo not given) | NO
CCOc1nc(-c2ccccc2)cc2c(O)c(C(=O)N/N=C/c3ccc(O)cc3O)[nH]c(=O)c12 | NO

----------
- System: M14 melanoma
- assay_details: NCI-60 one-dose screen, 48 h (100 = growth as untreated, 0 = no growth, -100 = all killed)
- condition_set: 10 µM unless noted
About 83,000 compounds went through this panel and 20% of them were active in at least one assay; those are over-represented in the sample as a whole.
Assign a class from recorded growth; defined classes: bucket A: < 20%; bucket B: ≥ 20% and < 90%; bucket C: ≥ 90%

O=C(Cc1ccccc1Nc1c(Cl)cccc1Cl)NN1C(=O)/C(=C/c2ccc(Br)cc2)SC1=S | bucket C
COc1ccc(CN2c3ccccc3Sc3ccccc32)cc1O | bucket A
O=C1Nc2cc(-c3ccc(O)cc3)ccc2/C1=C/c1ccc[nH]1 | bucket A
CCCCCCCCCCCCC[N+](C)(C)Cc1ccccc1 | bucket A
COc1ccc(N=Nc2nccs2)c(O)c1 | bucket B
C=C1c2nc3ccccc3n2C=C(c2cccc(Cl)c2)N1Cc1ccc(OC)cc1 | bucket B
Nc1nc2ccc3[nH]ncc3c2c2c1CCCC2 | bucket A
O=[N+]([O-])c1ccccc1/C=N\NC(=S)N/N=C/c1ccccc1[N+](=O)[O-] | bucket B
CC(=O)Oc1ccc(Cl)cc1CN(C(C)=O)C1CCCCC1 | bucket C
CC(=O)c1nc2ccccc2n1CC(=O)c1cccc(Cl)c1 | bucket A
CCNC(=O)Oc1ccc(/C(=C(\C)c2ccc(Cl)cc2)c2ccc(OCCN(CC)CC)cc2)cc1 | bucket A
CCc1nc(N)nc(N)c1C#CC(C)c1cc(-c2ccnc(C)c2)c2oc(C)nc2c1 (stereo not drawn) | bucket A
Cc1ccc(-c2onc3c(=O)[nH]nc(-c4ccccc4)c23)cc1 | bucket B
CCN1CCN(c2nc(NCCCNc3ccnc4cc(Cl)ccc34)c3ccccc3n2)CC1 | bucket A
Nc1ccc(-c2cc3c(Nc4ccc(Oc5cccc(C(F)(F)F)c5)c(Cl)c4)ncnc3s2)cc1 | bucket B
C=CCSSc1ncnc2c1ncn2C1OC(CO)C(O)C1O (stereo not drawn) | bucket A
COc1ccc2c(c1)C(=O)/C(=C/c1ccccn1)CC2 | bucket B
COc1cc2nc(N3CCCC3)nc(NCCc3ccccc3)c2cc1OC | bucket B
COc1ccc(O)c(N=Nc2nccs2)c1 | bucket C
O=C1c2ccccc2C(=O)c2c1ccc1[nH]c(-c3cccs3)nc21 | bucket C
CC(=O)O[C@H]1CC[C@]2(C)[C@H]3CC=C4[C@@H]5CC(C)(C)CC[C@]5(C(=O)NCCNCCNCCN)CC[C@@]4(C)[C@]3(C)CC[C@H]2C1(C)C | bucket B
C=C(C)C(=O)Nc1ccc(NC(C)C)cc1 | bucket C
Cc1cc2c3ccccc3ccc2[n+]2ccccc12 | bucket B
O=C(COc1cccc(/C=C2\COc3ccccc3C2=O)c1)Nc1nccs1 | bucket A
COc1cc2c(cc1-c1c(C)noc1C)ncc1nc(C3CCCCC3)n([C@H](C)COC(F)F)c12 | bucket B
O=C1CC(=NCC(=O)n2c(-c3ccccc3)nc3ccccc32)NN1 | bucket C
Nc1ccc(-c2cc3c(NCc4ccccc4)ncnc3s2)cc1 | bucket C
CC(=O)c1cc2c(N)c(C(=O)Nc3ccccc3)sc2nc1C | bucket B
CCCCCCN(CCCCCC)CCC(O)c1ccc2ccccc2c1 (stereo not drawn) | bucket B
c1csc(C2=NN3C(C2)c2ccccc2OC3c2ccncc2)c1 (stereo not drawn) | bucket C
CC1=CC(C)(C)Nc2ccc(Cc3ccc4c(c3)C(C)=CC(C)(C)N4)cc21 | bucket C
Cc1cc(C)c2nc3nc(C)cc(C)c3c(N)c2c1 | bucket B
FC(F)(F)c1ccc(-c2cn3nc(-c4c[nH]c5ccc(Br)cc45)sc3n2)cc1 | bucket C
COc1cccc(-c2nc3sccn3c2-c2ccnc(NCCNS(=O)(=O)c3ccc(F)cc3)c2)c1 | bucket B
COc1cc2nc(N3CCCC3)nc(NCc3ccccc3)c2cc1OC | bucket A
O=C1c2cc3c(cc2-c2c1c1ccc(F)cc1c(=O)n2C[C@H](O)[C@@H](O)[C@H](O)CO)OCO3 | bucket A
Cc1nn(-c2cc(=O)[nH]c3ccc(Cl)cc23)c(N)c1C#N | bucket C
OC(COc1cccc2ccccc12)CN1CCN(c2ccccc2Cl)CC1 (stereo not drawn) | bucket B
COc1ccc(S(=O)(=O)N2CC3(COC3)C2)cc1NC(=O)c1[nH]c(C)c2c1CCCCC2=O | bucket B
CCc1nc(N)nc(N)c1C#CC(C)c1ccc(-c2ccncc2)cc1Cl (stereo not drawn) | bucket A
CC(=O)Nc1ccc(-n2c(O)c(/C=N/NC(=O)Cc3ccccc3Nc3c(Cl)cccc3Cl)sc2=S)cc1 | bucket C

----------
- System: SNB-19 CNS
- assay_details: NCI-60 one-dose screen, 48 h
- condition_set: 10 µM unless noted
- Procedure: Growth inhibition of the SNB-19 human tumor cell line is measured as a screen for anti-cancer activity. Cells are grown in 96 well plates and exposed to the test compound for 48 hours. Compounds are tested at a single concentration, which is 10^-5 M for most compounds. The reported endpoint is percent growth (GI% or GIPRCNT), where numbers from 0 - 100% represent growth inhibition, and numbers from -100% - 0 represent cell death. For example, a value of 40 represents 60% growth inhibition. […]
Compounds without any hit were thinned out: in the full panel of roughly 83,000, 20% have a hit. Active and inactive are the calls of the source. The calls were made as follows: active = growth percent below 10; inactive = the rest.
Classes used: 1 (active), 0 (inactive)

Cn1ccnc1C(=O)/C=C/c1ccc(CC(=O)Nc2ccccc2)cc1 | 0
C=C1c2nc3ccccc3n2C=C(c2ccc(Cl)cc2)N1Cc1ccc(OC)cc1 | 0
CC(=O)c1nc2ccccc2n1CC(=O)c1cccc(Cl)c1 | 0
Cc1cc(N2CCOCC2)nc(NCc2cc(Nc3ccnc4cc(Cl)ccc34)ccc2F)n1 | 1
N=C(N)c1ccc(-c2ccc(-c3ccc4ccccc4c3)s2)s1 | 1
COc1cccc(C2=NN3C(C2)c2cc(Br)cc(OC)c2OC32CCN(Cc3ccccc3)CC2)c1 (stereo unspecified) | 0
O=C1c2c(O)cc(O)cc2-c2c(-c3ccc(O)cc3)oc3cc(O)cc1c23 | 0
Cn1cc(-c2nonc2-c2cn(C)c3ccc(F)cc23)c2ccccc21 | 0
Cn1ccnc1C(=O)/C=C/c1ccccc1 | 0
CC(C)n1c(/C=C/[C@@H](O)C[C@@H](O)CC(=O)O)c(-c2ccc(F)cc2)c2ccccc21 | 0
C#CCOc1ccc2ncnc(N3CCC(NC(=O)CCl)CC3)c2c1 | 0
COc1ccc(-c2nc3ccc(-c4nc5ccc(N6CCN(c7ccc(F)cc7)CC6)cc5[nH]4)cc3[nH]2)cc1OC | 0
NCCNc1nc(Nc2ccc(-c3nc4ccccc4[nH]3)cc2)c2cn[nH]c2n1 | 0
CN1CCN(Cc2ccc(NC(=O)c3cncc(C#Cc4cncn5ccnc45)c3)cc2C(F)(F)F)CC1 | 0
NC(=O)c1cc(I)ccc1NC(=O)/C=C/c1ccccc1Cl | 0
COC(=O)c1cccc(NC(=O)c2ccc(-c3cccc(N)c3)o2)c1 | 0
N#CN1CC[C@H](C(=O)Nc2cc3cc(C(N)=O)ccc3cn2)C1 | 1
COc1cccc(/C=C2\SC(=Nc3ccc(NC(C)=O)cc3)NC2=O)c1OC | 0
CC(=O)c1cc(C(=O)c2ccc3c(c2)Sc2ccccc2N3)n2ccccc12 | 0
Clc1ccc2c(NCCNc3nc(N4CCOCC4)nc4ccccc34)ccnc2c1 | 1
O=C(Nc1cccc2[nH]c(C(F)(F)F)nc12)c1ccc(-n2cnnn2)cc1 | 0
Cc1cc2nc3[nH]c4ccccc4c3nc2cc1C | 0
O=C(COc1ccc(/C=C2\CSc3ccccc3C2=O)cc1)Nc1nccs1 | 0
COc1cc(C(=O)/C=C/c2cccnc2Nc2ccc(Cl)cc2)cc(OC)c1OC | 1
COc1ccc(-c2nn(-c3ccc(Cl)cc3)cc2-c2nc3ccccc3[nH]2)cc1 | 0
CSc1nc(NCCN2CCOCC2)c(C#N)c(-c2cccc([N+](=O)[O-])c2)n1 | 0
COc1ccc(S(=O)(=O)N2CC3(COC3)C2)cc1NC(=O)c1[nH]c(C)c2c1CCCCC2=O | 0
O=C(CN1CCCCC1)Nc1ccc2oc(=O)ccc2c1 | 0
N#Cc1cnn(-c2nc3c(Cl)cccc3s2)c1N | 0
COc1ccc(NC2=C(Sc3nc(C)cc(C)n3)C(=O)N(Cc3ccccc3)C2=O)cc1Cl | 0
C=C(C)[C@@H]1CC[C@]2(C(N)=O)CC[C@]3(C)[C@H](CC[C@@H]4[C@@]5(C)C/C(=C/c6ccco6)C(=O)C(C)(C)[C@@H]5CC[C@]43C)[C@@H]12 | 0
Cn1c(NCCc2ccc(O)c(O)c2)nc2c1c(=O)n(Cc1ccc(Br)cc1)c(=O)n2C | 0
COc1cc(-c2nc3ccccc3[nH]2)ccc1OCc1nnc(-c2ccc(CC(C)C)cc2)o1 | 0
CCOC(=O)c1cc(C(=O)c2ccc(O)c(O)c2)n2ccc(-c3ccn4c(C(=O)c5ccc(O)c(O)c5)cc(C(=O)OCC)c4c3)cc12 | 0
CN(C)C(=S)N=Nc1c(O)[nH]c2ccccc12 | 0
CCCCn1c(-c2ccc(C(=O)O/N=C(\N)c3ccc4c(c3)OCO4)cc2)nc(-c2ccccc2)c1-c1ccccc1 | 0
O=C(C(=O)c1ccc2c(c1)OCO2)c1ccc2c(c1)OCO2 | 0
CN1CCN(CCCOc2cccc3nc(Nc4cc(Cl)cc(Cl)c4)ccc23)CC1 | 1
O=C1/C(=C/c2ccc(OCCCOc3ccc(Cl)cc3)cc2)N=C2SCCCN12 | 0
CCc1nnc(CNc2ccc(Cl)cc2)o1 | 0
COc1cc2nnc3c4cccnc4[nH]c3c2cc1OC | 0
